- Tested on: anti-M2 human monoclonal antibody Z3G1
- Assay type: binding
Reported Signal (peptides that show specific binding to Z3G1) is given for each of the following substances.
Give only the figure.

Example entries begin here.
549 (SLLTEVETFIRNEWGCRCNDSSD; epitope peptide) [compound 549] | 2301
1559 (SLLCEVGSLLTCV; epitope peptide) [compound 1559] | 1972
379 (SLCTEVGCSCLCEV; epitope peptide) [compound 379] | 1500
326 (SLLTEVETPIRNEWGCRCNDSSD; epitope peptide) [compound 326] | 2476

// next item, Signal (peptides that show specific binding to Z3G1) requested
Which measured Signal (peptides that show specific binding to Z3G1) value corresponds to 230 (CTPIRNEWGSRSNDSSCSLLTEVETC; epitope peptide) [compound 230] ?
2168

###

- Test system: HuM2e antibody 23K12
- Type: binding, human
property: Signal (peptides that bind to 23K21 and 8I10)
Give only the figure.

Example entries begin here.
431 (SLLTEVETPIRNEWGCRCNDSTD; epitope peptide) [compound 431] | 701
450 (SLLTEVEHPIRNEWGCRCNDSSD; epitope peptide) [compound 450] | 1331
381 (SLLQEVETPIRNEWGCRCNDSSD; epitope peptide) [compound 381] | 1399
410 (SLLTEVETPIRNEWGCRCNDLSD; epitope peptide) [compound 410] | 769

Which measured Signal (peptides that bind to 23K21 and 8I10) value corresponds to 570 (MCLLTEVGCSLLTEV; epitope peptide) [compound 570] ?
875

###

- Tested on: anti-M2 human monoclonal antibody Z3G1
- Type: binding
Mark TRUE only for Signal (peptides that show specific binding to Z3G1) values smaller than 2000; exact matches and larger values are FALSE.

Solved entries:
571 (SLLTEVETPIRNLWGCRCNDSSD; epitope peptide) [compound 571] | FALSE
1564 (ELLTEVETPIRNEWGCRCNDSSD; epitope peptide) [compound 1564] | FALSE
300 (SLLTEVETKIRNEWGCRCNDSSD; epitope peptide) [compound 300] | FALSE
522 (SLLTMVETPIRNEWGCRCNDSSD; epitope peptide) [compound 522] | TRUE
377 (SLKTEVETPIRNEWGCRCNDSSD; epitope peptide) [compound 377] | TRUE
552 (SLLTEVETPIRNEWGCYCNDSSD; epitope peptide) [compound 552] | FALSE

Turning to the following substance.
Could you please tell me whether Signal (peptides that show specific binding to Z3G1) recorded for 1555 (SLLTCVGSLLCEV; epitope peptide) [compound 1555] is less than 2000?
FALSE

###

Reported Signal (peptides that bind to 23K21 and 8I10) is given for each of the following substances.
- Tested on: HuM2e antibody 23K12
- Format: binding, human
Give only the figure.

545 (SLLTEVSTPIRNEWGCRCNDSSD; epitope peptide) [compound 545] | 923
626 (SLLTEVETPIRNEWGCRCYDSSD; epitope peptide) [compound 626] | 791
629 (SLLTEVMTPIRNEWGCRCNDSSD; epitope peptide) [compound 629] | 783
710 (SLLTEVETPIRREWGCRCNDSSD; epitope peptide) [compound 710] | 707
668 (SLLTEVETPIRNEWGYRCNDSSD; epitope peptide) [compound 668] | 739

Which measured Signal (peptides that bind to 23K21 and 8I10) value corresponds to 316 (MSLLTEVGCSLLTEV; epitope peptide) [compound 316] ?
1809

Which measured Signal (peptides that bind to 23K21 and 8I10) value corresponds to 581 (SLLTEVETYIRNEWGCRCNDSSD; epitope peptide) [compound 581] ?
857

Which measured Signal (peptides that bind to 23K21 and 8I10) value corresponds to 302 (ASLLTEVGSCLTEV; epitope sequence) [compound 302] ?
1944

Which measured Signal (peptides that bind to 23K21 and 8I10) value corresponds to 215 (CSLLTEVETCLTEVETPIRNEWGSRC; epitope peptide) [compound 215] ?
958

Which measured Signal (peptides that bind to 23K21 and 8I10) value corresponds to 720 (SLLTEVETPIINEWGCRCNDSSD; epitope peptide) [compound 720] ?
699

Each recorded value in this set is attributed to patent US8932597B2.
